# EC50 per record follows
test system: pH2AX induction in HCT116 ATM-/- multicellular tumour spheroids; test: Prodrug Radiation Sensitization in Multicellular Tumour Spheroids, inhibition of pH2AX induction following radiation; assay type: cell-based; settings: Homo sapiens, HCT-116, 20 Gy, 5% O2, inner layers, read-out: Prodrug 5% O2 Inner layers EC50
Measurement label: EC50

[[record]]
compound = "Cc1nc(N[C@H]2CC[C@@H](Oc3nc(N4CCOCC4)cc4ncc(N(Cc5cnc([N+](=O)[O-])n5C)S(C)(=O)=O)cc34)CC2)ccc1F"
measurement_label = "EC50"
endpoint_result = "1000 to 10000 nM"

[[record]]
compound = "Cn1c(COc2cnc3cc(N4CCOCC4)nc(O[C@H]4CC[C@@H](Nc5ncccn5)CC4)c3c2)cnc1[N+](=O)[O-]"
measurement_label = "EC50"
endpoint_result = "10 to 500 nM"

[[record]]
compound = "CC(Oc1cnc2cc(N3CCOCC3)nc(O[C@H]3CC[C@@H](Nc4ncc(N5CCN(C)CC5)cn4)CC3)c2c1)c1cnc([N+](=O)[O-])n1C (stereo partly drawn)"
measurement_label = "EC50"
endpoint_result = "10 to 500 nM"

[[record]]
compound = "CC(c1cnc([N+](=O)[O-])n1C)N(c1cnc2cc(N3CCOCC3)nc(OC3CCC(c4cnccn4)CC3)c2c1)S(C)(=O)=O (stereo not drawn)"
measurement_label = "EC50"
endpoint_result = "10 to 500 nM"

[[record]]
compound = "Cn1c(COc2cnc3cc(N4CCOCC4)nc(O[C@H]4CC[C@@H](Nc5cncc(C(F)(F)F)n5)CC4)c3c2)cnc1[N+](=O)[O-]"
measurement_label = "EC50"
endpoint_result = "10000 to 100000 nM"

[[record]]
compound = "CC(NS(=O)(=O)c1cnc2cc(N3CCOCC3)nc(O[C@H]3CC[C@@H](Nc4ncc(OCCN5CCN(C)CC5)cn4)CC3)c2c1)c1cnc([N+](=O)[O-])n1C (stereo partly drawn)"
measurement_label = "EC50"
endpoint_result = "10000 to 100000 nM"

[[record]]
compound = "Cn1c(CN(c2cnc3cc(N4CCOCC4)nc(OC4CCC(Nc5ncc(N6CCN(CC(F)F)CC6)cn5)CC4)c3c2)S(C)(=O)=O)cnc1[N+](=O)[O-] (stereo not drawn)"
measurement_label = "EC50"
endpoint_result = "500 to 1000 nM"

[[record]]
compound = "Cn1c(CN(c2cnc3cc(N4CCOCC4)nc(O[C@H]4CC[C@@H](Nc5cnc(C#N)cn5)CC4)c3c2)S(C)(=O)=O)cnc1[N+](=O)[O-]"
measurement_label = "EC50"
endpoint_result = "10 to 500 nM"

[[record]]
compound = "Cn1c(Cn2cnnc2-c2cnc3cc(N4CCOCC4)nc(OC4CCC(Nc5ncccn5)CC4)c3c2)cnc1[N+](=O)[O-] (stereo not drawn)"
measurement_label = "EC50"
endpoint_result = "1000 to 10000 nM"

[[record]]
compound = "Cn1c(CN(c2cnc3cc(N4CCOCC4)nc(O[C@H]4CC[C@@H](Nc5ccc(F)cn5)CC4)c3c2)S(C)(=O)=O)cnc1[N+](=O)[O-]"
measurement_label = "EC50"
endpoint_result = "10 to 500 nM"

[[record]]
compound = "CC(NS(=O)(=O)c1cnc2cc(N3CCOCC3)nc(O[C@H]3CC[C@@H](Nc4ncc(C(F)(F)F)cn4)CC3)c2c1)c1cnc([N+](=O)[O-])n1C (stereo partly drawn)"
measurement_label = "EC50"
endpoint_result = "10000 to 100000 nM"

[[record]]
compound = "CC(c1cnc([N+](=O)[O-])n1C1CC1)N(c1cnc2cc(N3CCOCC3)nc(O[C@H]3CC[C@@H](Nc4ncccn4)CC3)c2c1)S(C)(=O)=O (stereo partly drawn)"
measurement_label = "EC50"
endpoint_result = "10 to 500 nM"


###

system: FaDu cell line; assay: Prodrug Activation in Hypoxic Stirred Tumour Cell Suspensions; details: 10 μM, 4 hours, 0.2% O2
Measurement label: Fraction of prodrug converted to active form, Hypoxic 0.2% O2

[[record]]
compound = "Cc1ccc(N[C@H]2CC[C@@H](Oc3nc(N4CCOCC4)cc4ncc(OC(C)c5cnc([N+](=O)[O-])n5C)cc34)CC2)nc1 (stereo partly drawn)"
endpoint_result = "A (A is 0.15 to 1)"

[[record]]
compound = "Cn1c(CN(c2cnc3cc(N4CCOCC4)nc(O[C@H]4CC[C@@H](Nc5cnc(C#N)cn5)CC4)c3c2)S(C)(=O)=O)cnc1[N+](=O)[O-]"
endpoint_result = "B (B is 0.05 to 0.15)"

[[record]]
compound = "Cn1c(COc2cnc3cc(N4CCOCC4)nc(O[C@H]4CC[C@@H](Nc5ncc(OCCN6CCOCC6)cn5)CC4)c3c2)cnc1[N+](=O)[O-]"
endpoint_result = "A (A is 0.15 to 1)"

[[record]]
compound = "CC(c1cnn(C)c1[N+](=O)[O-])N(c1cnc2cc(N3CCOCC3)nc(O[C@H]3CC[C@@H](Nc4ncc(OC5CCN(C)C5)cn4)CC3)c2c1)S(C)(=O)=O (stereo partly drawn)"
endpoint_result = "B (B is 0.05 to 0.15)"

[[record]]
compound = "CN(C)CCOc1cnc(N[C@H]2CC[C@@H](Oc3nc(N4CCOCC4)cc4ncc(N(Cc5cnn(C)c5[N+](=O)[O-])S(C)(=O)=O)cc34)CC2)nc1"
endpoint_result = "B (B is 0.05 to 0.15)"


###

tested on: FaDu cell line; assay: Prodrug Activation in Hypoxic Stirred Tumour Cell Suspensions; settings: 10 μM, 4 hours, 5% O2
Measurement label: Fraction of prodrug converted to active form, Oxic 5% O2

[[record]]
molecule = "CC(c1cnc([N+](=O)[O-])n1C)N(c1cnc2cc(N3CCOCC3)nc(O[C@H]3CC[C@@H](Nc4ncc(CCN5CCOCC5)cn4)CC3)c2c1)S(C)(=O)=O (stereo partly drawn) [LFA2074]"
endpoint_result = "C (C is 0.02 to 0.05)"

[[record]]
molecule = "Cc1cc(C)nc(N[C@H]2CC[C@@H](Oc3nc(N4CCOCC4)cc4ncc(N(Cc5cnc([N+](=O)[O-])n5C)S(C)(=O)=O)cc34)CC2)n1 [LFA2098]"
endpoint_result = "D (D is 0 to 0.02)"

[[record]]
molecule = "CN(C)CCOc1cnc(N[C@H]2CC[C@@H](Oc3nc(N4CCOCC4)cc4ncc(N(Cc5cnn(C)c5[N+](=O)[O-])S(C)(=O)=O)cc34)CC2)nc1 [LFA2075]"
endpoint_result = "B (B is 0.05 to 0.15)"

[[record]]
molecule = "Cn1c(COc2cnc3cc(N4CCOCC4)nc(O[C@H]4CC[C@@H](Nc5ncc(OCCN6CCOCC6)cn5)CC4)c3c2)cnc1[N+](=O)[O-] [LFA2069]"
endpoint_result = "C (C is 0.02 to 0.05)"

[[record]]
molecule = "Cn1c(Cn2cnnc2-c2cnc3cc(N4CCOCC4)nc(OC4CCC(Nc5ncccn5)CC4)c3c2)cnc1[N+](=O)[O-] (stereo not drawn) [LFA135]"
endpoint_result = "D (D is 0 to 0.02)"

[[record]]
molecule = "CC(Oc1cnc2cc(N3CCOCC3)nc(O[C@H]3CC[C@@H](Nc4ncc(N5CCN(C)CC5)cn4)CC3)c2c1)c1cnc([N+](=O)[O-])n1C (stereo partly drawn) [LFA2066]"
endpoint_result = "B (B is 0.05 to 0.15)"


###

System: pDNA-PK induction in HCT116 tumour spheroids
Test: Multicellular tumour spheroid + radiation, pDNA-PK (ser2056) inhibition, immunohistochemical endpoint, HCT116
Format: cell-based
Conditions: 20 Gy, 2 hours following radiation, 20% O2; Example 9 Study 2; read-out: Spheroid Cell line: HCT116 Immunohistochemical endpoint pDNA-PK inhibition EC50
Description: Multicellular tumour spheroids determination of compound inhibition of pDNA-PK induction following radiation. […] Multicellular tumour spheroids determination of compound inhibition of pDNA-PK induction following radiation. […] For cell survival endpoint 8 Gy radiation was used and 3 hours following radiation spheroids were dissociated, counted and plated for colony forming endpoint. […]
pEC50: −log10 of the molar value.
Measurement label: pEC50

[[record]]
compound = "N=C(N)N[C@H]1CC[C@@H](Oc2nc(N3CCOCC3)cc3ncccc23)CC1 [Compound 16]"
target_or_test_system = "pDNA-PK induction in HCT116 tumour spheroids"
endpoint_result = "4.00 to 5.00"


###

assay: Pharmacokinetic study in mice (IV and PO), plasma; format: in vivo, mouse; conditions: female, C57BL/6, po; mouse plasma, PC, 3 mg/kg
Measurement label: AUC(0-t) (ng·h/mL)

[[record]]
compound = "CN(C)C(=O)COc1cnc(N[C@H]2CC[C@@H](Oc3nc(N4CCOCC4)cc4ncccc34)CC2)nc1 [Compound 54]"
endpoint_result = 7650


###

# EC50 per record follows
test system: pH2AX induction in HCT116 ATM-/- multicellular tumour spheroids; assay: Prodrug Radiation Sensitization in Multicellular Tumour Spheroids, inhibition of pH2AX induction following radiation; type: cell-based; details: Homo sapiens, HCT-116, 20 Gy, 5% O2, inner layers, read-out: Prodrug 5% O2 Inner layers EC50
Measurement label: EC50

[[record]]
compound = "CC(c1cnc([N+](=O)[O-])n1C)N(c1cnc2cc(N3CCOCC3)nc(OC3CCC(Nc4ncc(N5CCN(CC(F)(F)F)CC5)cn4)CC3)c2c1)S(C)(=O)=O (stereo not drawn)"
target_or_test_system = "pH2AX induction in HCT116 ATM-/- multicellular tumour spheroids"
endpoint_result = "500 to 1000 nM"

[[record]]
compound = "CN(C)CCOc1cnc(N[C@H]2CC[C@@H](Oc3nc(N4CCOCC4)cc4ncc(N(Cc5cnn(C)c5[N+](=O)[O-])S(C)(=O)=O)cc34)CC2)nc1"
target_or_test_system = "pH2AX induction in HCT116 ATM-/- multicellular tumour spheroids"
endpoint_result = "10 to 500 nM"

[[record]]
compound = "Cn1ncc(CN(c2cnc3cc(N4CCOCC4)nc(O[C@H]4CC[C@@H](Nc5ncc(OCCN6CCOCC6)cn5)CC4)c3c2)S(C)(=O)=O)c1[N+](=O)[O-]"
target_or_test_system = "pH2AX induction in HCT116 ATM-/- multicellular tumour spheroids"
endpoint_result = "10 to 500 nM"

[[record]]
compound = "CS(=O)(=O)N(Cc1cnc([N+](=O)[O-])n1C1CC1)c1cnc2cc(N3CCOCC3)nc(O[C@H]3CC[C@@H](Nc4ncccn4)CC3)c2c1"
target_or_test_system = "pH2AX induction in HCT116 ATM-/- multicellular tumour spheroids"
endpoint_result = "10 to 500 nM"

[[record]]
compound = "CN1CCN(c2cnc(N[C@H]3CC[C@@H](Oc4nc(N5CCOCC5)cc5ncc(OCc6cnc([N+](=O)[O-])n6C)cc45)CC3)nc2)CC1"
target_or_test_system = "pH2AX induction in HCT116 ATM-/- multicellular tumour spheroids"
endpoint_result = "10 to 500 nM"

[[record]]
compound = "CC(Oc1cnc2cc(N3CCOCC3)nc(O[C@H]3CC[C@@H](Nc4ncc(OCCN(C)C)cn4)CC3)c2c1)c1cnc([N+](=O)[O-])n1C (stereo partly drawn)"
target_or_test_system = "pH2AX induction in HCT116 ATM-/- multicellular tumour spheroids"
endpoint_result = "1000 to 10000 nM"


Data credit: patent US20240239790A1
